Method: chemical genetic growth profiling, strain panel (AID 1159580);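 also: tested at 20 µM; growth read once vehicle control cultures reached saturation at 30 °C; 1 = growth at the plate median or of vehicle wells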
Study Conditions: S. cerevisiae deletion strains, growth OD, locus YBL105C, strain PKC1, stronger effect = lower value
In all, about 5,500 compounds went through this assay and about 2,000 (36%) were called active. Roughly 18% stayed inconclusive and do not appear here. The list shows a part of the results.
# normalized growth per entry
Measure: normalized growth

>>> print(df.to_string())
                                   molecule            measure    recorded_value
0  CC(=O)c1ccc(Cl)c(NS(=O)(=O)c2cc(Cl)c(Cl)cc2Cl)c1  normalized growth  0.925 (inactive)
1  Cc1nn(C)c(C(=O)Sc2ccc(OC(F)(F)F)cc2)c1[N+](=O)[O-]  normalized growth  0.974 (inactive)
2  Cc1c(C(=O)Sc2ccc(F)cc2F)sc2nc(C(F)(F)F)nn12  normalized growth   0.0839 (active)
3   Cc1cc(C)cc(Sc2ccc3nnc(-c4ccccc4)n3n2)c1  normalized growth  0.988 (inactive)
4  CC(C)(C)c1ccc(C(=N)SC(C(=O)C(F)(F)F)c2ccccc2)cc1 (stereo not given)  normalized growth  0.994 (inactive)

###

Method: chemical genetic growth profiling, strain panel (AID 1159580)
Study Conditions: S. cerevisiae deletion strains, growth OD, locus YDL192W, strain arf1, stronger effect = lower value
Out of some 5,500 compounds screened, about 2,000 (36%) were called active. Not shown: some 18% with an inconclusive outcome. Some of the results follow.
Label key: TRUE means normalized growth under 1; FALSE means normalized growth of 1 or more.

Compound	Cat
COC(=O)C[C@H]1C2(C)CC34OC5(C)O[C@@]6([C@H](OC)C(OC(=O)C(C)C)[C@]7(C)C(/C(=C(/OC)C(C)C)C(=O)O[C@H]7c7ccoc7)[C@@]6(O5)[C@H](OC)[C@@]3(OC)C2OC(C)=O)[C@]14C (some centres undefined)	FALSE
COc1ccc(-c2coc3cc(OC)ccc3c2=O)cc1	TRUE
O=C1C(Cl)=C(Cl)C(=O)C(Cl)=C1Cl	TRUE
C[C@]12CCC(=O)C=C1C=CC1C2CC[C@@]2(C)C1CC[C@@]21CCC(=O)O1 (some centres undefined)	TRUE
CC[C@@]1(O)C[C@H](O)c2c(cc3c(c2O)C(=O)c2c(O)ccc(O)c2C3=O)[C@H]1C(=O)OC	TRUE
c1ccc2c(c1)sc1ccccc12	TRUE
COc1ccc(-c2coc3cc(O)ccc3c2=O)cc1	TRUE
COC(=O)c1cc(=O)c(O)c2c(O)c(O)ccc2c1	TRUE
C=CCc1ccc(O)c(OC)c1	TRUE
CC(=O)S[C@@H]1CC2=CC(=O)CC[C@]2(C)[C@H]2CC[C@@]3(C)[C@@H](CC[C@@]34CCC(=O)O4)C12 (some centres undefined)	FALSE
O=c1cccc2ccc(O)c(O)c2c1O	TRUE
NCCc1cnc[nH]1	FALSE
CC[C@@]1(O)C[C@H](O[C@H]2C[C@H](N(C)C)[C@H](O)[C@H](C)O2)c2c(cc3c(c2O)C(=O)c2c(O)cccc2C3=O)[C@H]1C(=O)OC	TRUE

###

Method: chemical genetic growth profiling, strain panel (AID 1159580);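 also: tested at 20 µM; growth read once vehicle control cultures reached saturation at 30 °C; 1 = growth at the plate median or of vehicle wells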
Study Conditions: S. cerevisiae deletion strains, growth OD, locus YBR160W, strain CDC28, stronger effect = lower value
The whole screen tested about 5,500 compounds, of which about 2,000 (36%) were called active. Another 18% or so got no clear call; they are omitted. This is one part of the list.
Measure: normalized growth

>>> df
                                    compound            measure  recorded_value
 0   Cc1cc(C)cc(Sc2ccc3nnc(-c4ccccc4)n3n2)c1  normalized growth           0.988
 1           Fc1cc(I)ccc1Nc1ccnc2cc(Cl)ccc12  normalized growth           0.978
 2  COc1cccc(C2CCN(C(=O)c3cccc4ccccc34)CC2)c1  normalized growth           0.991
 3  CCOC(=O)C1C(c2c(F)cccc2Cl)C(C(=O)OCC)C(O)(C(F)(F)F)NC1(O)C(F)(F)F (stereo unspecified)  normalized growth           0.993
 4  N/C(Cn1ccc(C(F)(F)F)n1)=N/OS(=O)(=O)c1cccc(Cl)c1Cl  normalized growth           0.972
 5  COc1ccc(C(CC(=O)c2ccccc2)Sc2ccccc2N)cc1OC (stereo unspecified)  normalized growth            0.98
 6              CCOC(=O)c1ccc2nc(N=CNO)sc2c1  normalized growth           0.954
 7  C/C(Cc1nnn(-c2cc(C)on2)n1)=N/OC(=O)Nc1ccc(Cl)cc1  normalized growth           0.993
 8        Cc1cccc(NC(=S)N/N=C\c2ccc(F)cc2)c1  normalized growth           0.958
 9  CC(=O)c1ccc(Cl)c(NS(=O)(=O)c2cc(Cl)c(Cl)cc2Cl)c1  normalized growth           0.886
10  Cc1cc(C(=O)NNS(=O)(=O)c2ccc(F)c(Cl)c2)nn1-c1c(Cl)cc(Cl)cc1Cl  normalized growth            0.98

###

# normalized growth per entry
Method: chemical genetic growth profiling, strain panel (AID 1159580);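 also: tested at 20 µM; growth read once vehicle control cultures reached saturation at 30 °C; 1 = growth at the plate median or of vehicle wells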
Study Conditions: S. cerevisiae deletion strains, growth OD, locus YJL154C, strain vps35, stronger effect = lower value
In all, about 5,500 compounds went through this assay and about 2,000 (36%) were called active. Roughly 18% stayed inconclusive and do not appear here. The list shows a part of the results.
Measure: normalized growth

Compound	Recorded Value
O=C1CCC(N2C(=O)c3ccccc3C2=O)C(=O)N1 (centres undefined)	1.01
COc1ccc(C(=O)O)cc1OC	0.992
C=CCc1ccc(O)c(OC)c1	0.996
O=C(Oc1cc(OC(=O)c2ccccc2)c2c(c1)O[C@H](c1ccc(OC(=O)c3ccccc3)c(OC(=O)c3ccccc3)c1)[C@@H](OC(=O)c1ccccc1)C2)c1ccccc1	0.997
CCCCC/C=C/CCC(=O)N[C@H]1[C@H](Oc2c3cc4cc2Oc2ccc(cc2Cl)[C@@H](O[C@@H]2O[C@H](CO)[C@@H](O)[C@H](O)[C@H]2NC(C)=O)[C@@H]2NC(=O)[C@H](NC(=O)[C@@H]4NC(=O)[C@H]4NC(=O)C(Cc5ccc(c(Cl)c5)O3)NC(=O)[C@H](N)c3ccc(O)c(c3)Oc3cc(O)cc4c3)c3ccc(O)c(c3)-c3c(OC4O[C@H](CO)[C@@H](O)[C@H](O)[C@@H]4O)cc(O)cc3[C@@H](C(=O)O)NC2=O)O[C@H](CO)[C@@H](O)[C@@H]1O (some centres undefined)	1.01
O=C(O[C@@H]1Cc2c(O)cc(O)cc2O[C@@H]1c1ccc(O)c(O)c1)c1cc(O)c(O)c(O)c1	1.03
C=CCc1ccc(OC)cc1	1
CCCCCCCCC(=O)NCc1ccc(O)c(OC)c1	0.983
CN1C2CCC1CC(OC(c1ccccc1)c1ccccc1)C2 (centres undefined)	0.975
CN1C2CCC1CC(OC(c1ccccc1)c1ccccc1N)C2 (centres undefined)	1
O=C(Oc1cc(O)cc2c1C[C@@H](OC(=O)c1cc(O)c(O)c(O)c1)[C@@H](c1cc(O)c(O)c(O)c1)O2)c1cc(O)c(O)c(O)c1	0.988
CCOC(=O)n1ccn(C)c1=S	0.977
COc1cc(CNC(=O)CCCC/C=C/C(C)C)ccc1O	0.98
Cc1[nH]c2ccccc2c1CN(C)C	1.02

###

Method: chemical genetic growth profiling, strain panel (AID 1159580);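 also: tested at 20 µM; growth read once vehicle control cultures reached saturation at 30 °C; 1 = growth at the plate median or of vehicle wells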
Study Conditions: S. cerevisiae deletion strains, growth OD, locus YBR023C, strain chs3, stronger effect = lower value
The campaign covered roughly 5,500 compounds. About 2,000 (36%) were called active. Inconclusive results (about 18%) are left out. This is one part of the list.

Compound	normalized growth
COc1ccc(C(c2ccc(OC)cc2)C(Cl)(Cl)Cl)cc1	0.998 (inactive)
CC[C@@]1(O)C[C@H](O[C@H]2C[C@H](N(C)C)[C@H](O)[C@H](C)O2)c2c(cc3c(c2O)C(=O)c2c(O)ccc(O)c2C3=O)[C@H]1C(=O)OC	1.52 [resistant] (active)
COc1cc([C@@H]2c3cc4c(cc3C(OC3O[C@@H]5COC(C)O[C@H]5[C@H](O)[C@H]3O)C3COC(=O)[C@@H]32)OCO4)cc(OC)c1O (some centres undefined)	1.03 (inactive)
C=C[C@@](C)(O)CCC1C(=C)C[C@H](OC(C)=O)C2C(C)(C)CCCC12C (some centres undefined)	1.02 (inactive)
Cc1[nH]c2ccccc2c1CN(C)C	1.02 (inactive)
C=C[C@@](C)(O)CCC1C(=C)C[C@H](O)C2C(C)(C)CCCC12C (some centres undefined)	0.978 (inactive)
CCCCCCCCCCC[C@@H](C[C@H]1OC(=O)[C@H]1CCCCCC)OC(=O)[C@@H](CC(C)C)NC=O	0.994 (inactive)
C=C1CCC2[C@](C)(CO)[C@H](O)CC[C@@]2(C)[C@@H]1C/C=C1/C(=O)OC[C@H]1O (some centres undefined)	0.999 (inactive)
O=c1cccc2ccc(O)c(O)c2c1O	0.887 (active)
